# credit: patent EP4583874B1

target: human PPARγ (Homo sapiens); construct: DNA constructs encoding human LBD domains of human PPARα, PPARγ, of LXRα (pGAL4-PPARα, pGAL4-PPARγ, pGAL4-LXRα); expressed in transfected cells; host or cells: HepG2; test: PPARγ luciferase reporter gene assay (pGAL4-PPARγ / pGL5-UAS 9x) in HepG2 cells; type: cell-based; conditions: HepG2, 24 h
Sequence (P37231 238-503 limits assumed): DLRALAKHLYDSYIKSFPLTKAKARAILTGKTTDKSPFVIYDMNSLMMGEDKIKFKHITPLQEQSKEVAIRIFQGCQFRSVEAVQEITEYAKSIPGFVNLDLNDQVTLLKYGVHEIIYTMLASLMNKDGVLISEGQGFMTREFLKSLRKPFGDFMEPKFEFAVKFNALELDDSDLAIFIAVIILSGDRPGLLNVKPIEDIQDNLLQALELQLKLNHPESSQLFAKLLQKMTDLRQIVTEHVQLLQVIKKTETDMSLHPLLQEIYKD
measured endpoint: Emax at 10 µM (%)

# compound, target desc, reported result
measured = [
    ("CCOC(=O)C(C)Oc1ccc(NCc2ccc3c(Cl)cccc3n2)cc1 (stereo not drawn) [compound 85]", "human PPARγ (Homo sapiens)", -6),
]

[1] CC(Oc1ccc(NCc2ccc3c(Cl)cc(Cl)cc3n2)cc1)C(=O)O (stereo not drawn) [compound 84]
[2] Cc1cc(C)c2ccc(Oc3ccc(O[C@H](C)C(=O)O)cc3)nc2c1 [compound 45]
Problem: Would you mind telling me which has the lower recorded Emax at 10 µM between 1 and 2 ? Answer by quoting the chosen item's label.
Solution: 1
